Test system: Mycobacterium tuberculosis Erdman (autoluminescent)
Protocol Details: Einf, fitted maximum growth inhibition of three-drug combination (fraction); higher = stronger maximal inhibition
Condition Info: in vitro model: valerate; time point: constant (~7 days, model-specific)
Quantity Measured: Einf

Compound	Measured Value
CC[C@@H](CO)NCCN[C@@H](CC)CO [ethambutol] + NNC(=O)c1ccncc1 [isoniazid] + CC(=O)NC[C@H]1CN(c2ccc(N3CCOCC3)c(F)c2)C(=O)O1 [linezolid]	0.91
CC(C)/N=c1\cc2n(-c3ccc(Cl)cc3)c3ccccc3nc-2cc1Nc1ccc(Cl)cc1 [clofazimine] + CC(=O)NC[C@H]1CN(c2ccc(N3CCOCC3)c(F)c2)C(=O)O1 [linezolid] + CO[C@H]1/C=C/O[C@@]2(C)Oc3c(C)c(O)c4c(O)c(c(/C=N/N5CCN(C6CCCC6)CC5)c(O)c4c3C2=O)NC(=O)/C(C)=C\C=C\[C@H](C)[C@H](O)[C@@H](C)[C@@H](O)[C@@H](C)[C@H](OC(C)=O)[C@@H]1C [rifapentine]	0.883
CC[C@@H](CO)NCCN[C@@H](CC)CO [ethambutol] + CO[C@H]1/C=C/O[C@@]2(C)Oc3c(C)c(O)c4c(O)c(c(/C=N/N5CCN(C6CCCC6)CC5)c(O)c4c3C2=O)NC(=O)/C(C)=C\C=C\[C@H](C)[C@H](O)[C@@H](C)[C@@H](O)[C@@H](C)[C@H](OC(C)=O)[C@@H]1C [rifapentine] + CO[C@H]1/C=C/O[C@@]2(C)Oc3c(C)c(O)c4c(O)c(c(/C=N/N5CCN(C)CC5)c(O)c4c3C2=O)NC(=O)/C(C)=C\C=C\[C@H](C)[C@H](O)[C@@H](C)[C@@H](O)[C@@H](C)[C@H](OC(C)=O)[C@@H]1C [rifampicin]	0.889
NNC(=O)c1ccncc1 [isoniazid] + CC(=O)NC[C@H]1CN(c2ccc(N3CCOCC3)c(F)c2)C(=O)O1 [linezolid] + COc1c(N2C[C@@H]3CCCN[C@@H]3C2)c(F)cc2c(=O)c(C(=O)O)cn(C3CC3)c12 [moxifloxacin]	0.888
COc1nc2ccc(Br)cc2cc1[C@@H](c1ccccc1)[C@@](O)(CCN(C)C)c1cccc2ccccc12 [bedaquiline] + CC[C@@H](CO)NCCN[C@@H](CC)CO [ethambutol] + CO[C@H]1/C=C/O[C@@]2(C)Oc3c(C)c(O)c4c(O)c(c(/C=N/N5CCN(C)CC5)c(O)c4c3C2=O)NC(=O)/C(C)=C\C=C\[C@H](C)[C@H](O)[C@@H](C)[C@@H](O)[C@@H](C)[C@H](OC(C)=O)[C@@H]1C [rifampicin]	0.904
COc1nc2ccc(Br)cc2cc1[C@@H](c1ccccc1)[C@@](O)(CCN(C)C)c1cccc2ccccc12 [bedaquiline] + CC(=O)NC[C@H]1CN(c2ccc(N3CCOCC3)c(F)c2)C(=O)O1 [linezolid] + CO[C@H]1/C=C/O[C@@]2(C)Oc3c(C)c(O)c4c(O)c(c(/C=N/N5CCN(C6CCCC6)CC5)c(O)c4c3C2=O)NC(=O)/C(C)=C\C=C\[C@H](C)[C@H](O)[C@@H](C)[C@@H](O)[C@@H](C)[C@H](OC(C)=O)[C@@H]1C [rifapentine]	0.899

* * *

System: Mycobacterium tuberculosis Erdman (autoluminescent)
Protocol Details: total FIC50 (Loewe) at 50% inhibition, three-drug combination (log2); higher = more antagonistic
Condition Info: in vitro model: standard 7H9 glycerol; time point: constant = terminal

Compound	total FIC50
CC(=O)NC[C@H]1CN(c2ccc(N3CCOCC3)c(F)c2)C(=O)O1 [linezolid] + O=[N+]([O-])c1cn2c(n1)OC[C@@H](OCc1ccc(OC(F)(F)F)cc1)C2 [pretomanid] + NC(=O)c1cnccn1 [pyrazinamide]	0.706
CC[C@@H](CO)NCCN[C@@H](CC)CO [ethambutol] + NNC(=O)c1ccncc1 [isoniazid] + CC(=O)NC[C@H]1CN(c2ccc(N3CCOCC3)c(F)c2)C(=O)O1 [linezolid]	0.88
COc1nc2ccc(Br)cc2cc1[C@@H](c1ccccc1)[C@@](O)(CCN(C)C)c1cccc2ccccc12 [bedaquiline] + O=[N+]([O-])c1cn2c(n1)OC[C@@H](OCc1ccc(OC(F)(F)F)cc1)C2 [pretomanid] + CO[C@H]1/C=C/O[C@@]2(C)Oc3c(C)c(O)c4c(O)c(c(/C=N/N5CCN(C6CCCC6)CC5)c(O)c4c3C2=O)NC(=O)/C(C)=C\C=C\[C@H](C)[C@H](O)[C@@H](C)[C@@H](O)[C@@H](C)[C@H](OC(C)=O)[C@@H]1C [rifapentine]	-0.0622
